Test system: CbCln3 +/+ GFP-LC3 cerebellar neuronal cells
protocol_description: fraction of GFP-LC3-positive cells (≥5 vesicles/cell); higher = more autophagosome accumulation
Whole data set: some 1,700 compounds, median “fraction of GFP-LC3-positive cells (≥5 vesicles/cell)” near 0.058, cut for the highest 2% near 0.59. Shown is part of a subset that was picked to be rich in the highest values.
measured_parameter: fraction of GFP-LC3-positive cells
Lab note: jot the number down without any unit.

# annotated cases, reported fraction of GFP-LC3-positive cells shown
molecule	target_system	fraction of GFP-LC3-positive cells
Oc1cc2c(cc1O)CN(C(=S)NCCc1ccc(Cl)cc1)CCC2 [capsazepine]	CbCln3 +/+ GFP-LC3 cerebellar neuronal cells	0.197
O=C1C=CC(=O)c2c1ccc1c2ccc2ccccc21	CbCln3 +/+ GFP-LC3 cerebellar neuronal cells	0.597
O=C(CCCN1CCC(O)(c2ccc(Br)cc2)CC1)c1ccc(F)cc1	CbCln3 +/+ GFP-LC3 cerebellar neuronal cells	0.0553

fraction of GFP-LC3-positive cells reported for this molecule CCN(CC)CCCCCCCCOC(=O)c1cc(OC)c(OC)c(OC)c1 : 0.0457

Record CC(=O)Oc1cc(C(C)C)c(OCCN(C)C)cc1C.Cl [Moxisylyte hydrochoride] , field fraction of GFP-LC3-positive cells: 0.0756

The molecule identified as CC(C)(C)NCC(O)COc1cccc2c1CC(O)C(O)C2 (configuration not stated) registered its fraction of GFP-LC3-positive cells at 0.0452

---

Tested on: CbCln3 +/+ GFP-LC3 cerebellar neuronal cells
protocol_description: fraction of GFP-LC3-positive cells (≥5 vesicles/cell); higher = more autophagosome accumulation
The full ranking holds about 1,700 compounds; the median of “fraction of GFP-LC3-positive cells (≥5 vesicles/cell)” is about 0.058, and the highest 2% start at about 0.59. The entries come from a sample that favours the highest values as a whole.
measured_parameter: fraction of GFP-LC3-positive cells
Give the value as a plain number.

compound	fraction of GFP-LC3-positive cells
CCCCC/C=C/C/C=C/CCCCCCCCCCCC(=O)O [13(Z),16(Z)-Docosadienoic acid]	0.0709
CCCCCCCC/C=C/CCCCCCCCCCC(=O)O [12(Z) Heneicosenoic acid]	0.0354
COc1cc(OC)c(C(=O)CCCN2CCCC2)c(OC)c1.Cl [Buflomedil hydrochloride]	0.0492
C/C=C(/C(=C/C)c1ccc(O)cc1)c1ccc(O)cc1 [Dienestrol]	0.14

# next compound below
So the reported fraction of GFP-LC3-positive cells for CC(=O)N(CC(O)CN(C(C)=O)c1c(I)c(C(=O)NCC(O)CO)c(I)c(C(=O)NCC(O)CO)c1I)c1c(I)c(C(=O)NCC(O)CO)c(I)c(C(=O)NCC(O)CO)c1I (stereo not given) [Iodixanol] , on CbCln3 +/+ GFP-LC3 cerebellar neuronal cells, turned out to be 0.0455

---

Test system: CbCln3 +/+ GFP-LC3 cerebellar neuronal cells
protocol_description: fraction of GFP-LC3-positive cells (≥5 vesicles/cell); higher = more autophagosome accumulation
Whole data set: some 1,700 compounds, median “fraction of GFP-LC3-positive cells (≥5 vesicles/cell)” near 0.058, cut for the highest 2% near 0.59. This is one part of a sample in which the highest values are shown more often than they occur.
Assign True to entries whose fraction of GFP-LC3-positive cells meets or exceeds 0.06; assign False to the rest.

compound	label
Oc1cc(O)cc(/C=C/c2ccc(O)c(O)c2)c1	True

Query compound follows.
Ask: hey, is fraction of GFP-LC3-positive cells for this one >= 0.06? C[C@H](NCCc1ccc(O)cc1)[C@H](O)c1ccc(O)cc1.Cl [Ritodrine hydrochloride]
Reply: False

---

Test system: CbCln3 +/+ GFP-LC3 cerebellar neuronal cells
protocol_description: fraction of GFP-LC3-positive cells (≥5 vesicles/cell); higher = more autophagosome accumulation
The full ranking holds about 1,700 compounds; the median of “fraction of GFP-LC3-positive cells (≥5 vesicles/cell)” is about 0.058, and the highest 2% start at about 0.59. The entries come from a sample that favours the highest values as a whole.
measured_parameter: fraction of GFP-LC3-positive cells
Write the value as a bare number.

Below are worked cases with known answers.
compound	fraction of GFP-LC3-positive cells
C[N+]1(C)CCC(OC(=O)C(O)(c2ccccc2)C2CCCC2)C1.[Br-] (stereo not drawn) [Glycopyrrolate]	0.0526
CN1C(C(=O)Nc2ccccn2)=C(O)c2ccccc2S1(=O)=O	0.0598
COC(=O)[C@H]1[C@H]2C[C@H]3c4[nH]c5ccccc5c4CCN3C[C@@H]2CC[C@@H]1O.Cl [Corynanthine hydrochloride]	0.0351

Recorded fraction of GFP-LC3-positive cells (compound CCCCNc1ccc(C(=O)OCCOCCOCCOCCOCCOCCOCCOCCOCCOC)cc1 [Benzonatate] ): 0.0604

Reported fraction of GFP-LC3-positive cells ( C[C@]12CCC(=O)C=C1CC[C@@H]1[C@@H]2C(=O)C[C@@]2(C)[C@H]1CC[C@]2(O)C(=O)CO ) = 0.0551

Data point: CC1=C(/C=C/C(C)=C/C=C/C(C)=C/C(=O)O)C(C)(C)CCC1 ; fraction of GFP-LC3-positive cells = 0.0875

Looking up CC[N+](CC)(CC)CC(=O)Nc1c(C)cccc1C.[Br-] , I found its fraction of GFP-LC3-positive cells recorded as 0.0348

---

Catalogue of compounds with associated fraction of GFP-LC3-positive cells
System: CbCln3 +/+ GFP-LC3 cerebellar neuronal cells
protocol_description: fraction of GFP-LC3-positive cells (≥5 vesicles/cell); higher = more autophagosome accumulation
Whole data set: some 1,700 compounds, median “fraction of GFP-LC3-positive cells (≥5 vesicles/cell)” near 0.058, cut for the highest 2% near 0.59. Many of the other results were omitted from the sample, so the highest values are more common in it than they were.
Please give only the number in your answer, with no unit.

Take a look at these entries with their results.
compound	fraction of GFP-LC3-positive cells
COc1ccc(CC(N)C(=O)N[C@H]2[C@@H](O)[C@H](n3cnc4c(N(C)C)ncnc43)O[C@@H]2CO)cc1 (stereo partly specified)	0.276
COc1ccc2c(c1OC)C(=O)O[C@@H]2[C@H]1c2c(cc3c(c2OC)OCO3)CCN1C	0.0895
Cc1ccsc1/C=C/C1=NCCCN1C.O=C(O)C(O)C(O)C(=O)O [Morantel tartrate]	0.0668
CC(=O)O[C@H]1C(=O)[C@@]2(C)[C@H]([C@H](OC(=O)c3ccccc3)[C@]3(O)C[C@H](OC(=O)[C@H](O)[C@@H](NC(=O)c4ccccc4)c4ccccc4)C(C)=C1C3(C)C)[C@]1(OC(C)=O)CO[C@@H]1C[C@@H]2O	0.642
CC(C[N+](C)(C)C)OC(N)=O.[Cl-] (stereo unspecified) [Bethanechol chloride]	0.0276

The compound CC[C@H](C)C(=O)O[C@H]1C[C@@H](C)C=C2C=C[C@H](C)[C@H](CC[C@@H]3C[C@@H](O)CC(=O)O3)[C@H]21 showed fraction of GFP-LC3-positive cells equal to 0.203

---

Tested on: CbCln3 +/+ GFP-LC3 cerebellar neuronal cells
protocol_description: fraction of GFP-LC3-positive cells (≥5 vesicles/cell); higher = more autophagosome accumulation
In all, about 1,700 compounds were measured (“fraction of GFP-LC3-positive cells (≥5 vesicles/cell)”: median about 0.058, highest 2% from about 0.59 on). Only a selection was taken, and the highest values are over-represented in it overall.
Classification field: Condition met = fraction of GFP-LC3-positive cells at or over 0.06; Condition not met = fraction of GFP-LC3-positive cells under 0.06.

Ask: Hi team, for CCOC1O[C@H]([C@@H](COCc2ccccc2)OCc2ccccc2)[C@H](OCc2ccccc2)[C@H]1O (stereo partly specified) [Tribenoside] , is the recorded fraction of GFP-LC3-positive cells at or above 0.06?
Reply: Condition met

Ask: Textbook exercise: given the entry CCCC[C@@H](C)/C=C(C)/C=C(\C)C(=O)NC1=C[C@@](O)(/C=C/C=C/C=C/C(=O)NC2=C(O)CCC2=O)[C@@H]2O[C@@H]2C1=O [manumycin A] , state whether its fraction of GFP-LC3-positive cells is greater than or equal to 0.06.
Reply: Condition met

---

System: CbCln3 +/+ GFP-LC3 cerebellar neuronal cells
protocol_description: fraction of GFP-LC3-positive cells (≥5 vesicles/cell); higher = more autophagosome accumulation
In all, about 1,700 compounds were measured (“fraction of GFP-LC3-positive cells (≥5 vesicles/cell)”: median about 0.058, highest 2% from about 0.59 on). The full list was thinned out, with the highest values kept by preference.
List of fraction of GFP-LC3-positive cells values.
Lab note: jot the number down without any unit.

Worked cases, answers included:
compound	measured_result
COc1ccc(C(=O)c2ccccc2)c(O)c1	0.0797
COC(=O)/C=C/c1cc(O)ccc1O	0.852
NC(=O)c1ccc(-c2nc(-c3ccc4c(c3)OCO4)c(-c3ccccn3)[nH]2)cc1	0.0591
Cc1ccc2c(c1)C(=O)C1(O)CCN(c3ccccc3)C1=N2 (stereo not given)	0.0372
O=C(O)CNC(=O)C(CS)Cc1ccccc1 (stereo not given)	0.0564
Oc1cc(O)cc(/C=C/c2ccc(O)c(O)c2)c1 [Piceatannol]	0.357
CCCCCCCCCCCCCCCCCCCCCCC(=O)O	0.0481
O=C(Nc1ccccc1)c1cc([N+](=O)[O-])ccc1Cl	0.0781

Quick note, fraction of GFP-LC3-positive cells for CN(C)N=Nc1[nH]cnc1C(N)=O landed at 0.0174

Kindly note the recorded fraction of GFP-LC3-positive cells for COc1ccc2c(c1)c(CC(=O)N1CCOCC1)c(C)n2C(=O)c1ccc(Cl)cc1 , which is 0.0513
